- measurement protocol: qHTS RealTime-Glo MT Cell Viability Assay in HepG2 cells - 16 hour (AID 1224885); note: nearly all actives have a fitted effect of over 50% in size
- assay context: RealTime-Glo luminescence; series mostly up to 76.8 µM
Inconclusive results are not listed. The source made the active and inactive calls. Calls come from the whole dose curve; as a rule, active = well fitted cell-killing curve with a large enough effect in the repeat runs; inconclusive = weak or mixed curves; inactive = flat fitted curve, though single readings scatter.
experimental endpoint: outcome

> print(dat)
                                   compound  value.reported
1                                BrCCCCCCBr        inactive
2  OC(c1ccc(F)cc1)(c1cncnc1)c1ccccc1Cl (stereo not drawn)        inactive
3          CSc1ccc(C(=O)C(C)(C)N2CCOCC2)cc1        inactive
4  C[C@@H]1CN(C2CCC(C#N)(c3ccc(F)cc3)CC2)CC[C@]1(C(=O)O)c1ccccc1 (stereo partly drawn)        inactive
5  CC(C)NCC(O)c1ccc(N)c(C#N)c1 (stereo not drawn)        inactive

Value of measured outcome for the entry CCc1cc2c(s1)-n1c(C)nnc1CN=C2c1ccccc1Cl : inactive

The compound listed as N#CC(O)c1ccccc1 (stereo not drawn) has a reported outcome of inactive

Lab note: C#C[C@]1(O)C=C[C@H]2[C@@H]3CCC4=CC(=O)CC[C@@H]4[C@H]3CC[C@@]21CC gave outcome of inactive

Reported outcome ( Oc1c(Cl)cccc1Cl ) = inactive

###

- target or system: Aryl hydrocarbon receptor (Homo sapiens) (UniProt P35869)
- Sequence (P35869 whole entry, looked up): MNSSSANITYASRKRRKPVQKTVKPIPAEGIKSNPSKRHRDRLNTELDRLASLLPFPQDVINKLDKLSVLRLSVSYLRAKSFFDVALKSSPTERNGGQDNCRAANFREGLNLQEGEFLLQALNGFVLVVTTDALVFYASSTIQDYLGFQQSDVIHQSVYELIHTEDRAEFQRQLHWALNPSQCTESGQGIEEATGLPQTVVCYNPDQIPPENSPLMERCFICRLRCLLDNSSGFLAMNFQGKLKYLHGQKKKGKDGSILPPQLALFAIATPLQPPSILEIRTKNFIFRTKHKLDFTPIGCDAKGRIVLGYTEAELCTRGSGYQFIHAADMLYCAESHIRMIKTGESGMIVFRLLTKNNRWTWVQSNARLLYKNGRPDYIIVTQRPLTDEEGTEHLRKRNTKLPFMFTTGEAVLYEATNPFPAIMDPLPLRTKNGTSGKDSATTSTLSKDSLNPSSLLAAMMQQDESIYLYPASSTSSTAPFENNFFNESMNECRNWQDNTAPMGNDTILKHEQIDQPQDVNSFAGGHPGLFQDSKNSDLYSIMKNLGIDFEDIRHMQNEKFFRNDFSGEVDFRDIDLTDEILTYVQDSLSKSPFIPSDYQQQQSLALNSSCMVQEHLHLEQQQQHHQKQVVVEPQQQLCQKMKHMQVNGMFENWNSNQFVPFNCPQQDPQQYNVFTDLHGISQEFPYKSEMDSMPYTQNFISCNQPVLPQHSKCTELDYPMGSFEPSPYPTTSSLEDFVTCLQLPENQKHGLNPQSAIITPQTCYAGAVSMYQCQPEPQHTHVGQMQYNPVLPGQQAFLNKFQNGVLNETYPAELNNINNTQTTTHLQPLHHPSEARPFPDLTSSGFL
- measurement protocol: qHTS assay to identify small molecule that activate the aryl hydrocarbon receptor (AhR) signaling pathway (AID 743085); note: nearly all actives have a fitted effect of over 15% in size;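 for activation: HG2L7.5c1 human HepG2 liver cells with stably integrated DRE-driven firefly reporter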
- assay context: HepG2 AhR-luc (HG2L7.5c1), luciferase, 24 h; series mostly up to 70.3 µM
Records with an inconclusive call do not appear. The source made the active and inactive calls. Calls come from the whole dose curve; as a rule, active = well fitted activation curve with a large enough effect in the repeat runs; inconclusive = weak or mixed curves; inactive = no such curve, though single readings can be large or run the other way.
Result category, one only: active, inactive

Example entries and their recorded answers appear below.
> print(dat)
                                   compound     label
1  C[C@H]1CCC[C@H](O)CCCCCc2cc(O)cc(O)c2C(=O)O1  inactive
2   CCN(Cc1ccc(Cl)nc1)/C(=C/[N+](=O)[O-])NC  inactive
3  CS(=O)(=O)c1cc(C(F)(F)F)ccc1C(=O)c1cnoc1C1CC1  inactive

Incoming: // param item: COP(=S)(OC)Oc1c(Cl)cc(C)cc1Cl ; yields the recorded call
Outgoing: active

Incoming: Test call for this compound, please: C[C@]1(O)CC[C@H]2[C@@H]3CCC4=CC(=O)CC[C@]4(C)[C@@]3(F)[C@@H](O)C[C@@]21C
Outgoing: inactive

Incoming: Each compound tested received a call. Report the one for CC(C)COP(=O)(OCC(C)C)OCC(C)C .
Outgoing: inactive

Incoming: Given CCCCCCBr , state the outcome it received in this test.
Outgoing: inactive

###

- target or system: Estrogen receptor (Homo sapiens)
- measurement protocol: qHTS assay to identify small molecule agonists of the estrogen receptor alpha (ER-alpha) signaling pathway using the BG1 cell line (AID 743079); note: potency is the fitted concentration of half-maximal effect; nearly all actives have a fitted effect of over 20% in size
- assay context: BG1Luc4E2 cells, ERE-luciferase agonist, 22 h
Records with an inconclusive call do not appear. Active and inactive are the calls of the source. The call rests on the fitted dose curve; in most records, active means well fitted activation curve with a large enough effect in the repeat runs; inconclusive means weak or mixed curves, or effect the other way; inactive means no such curve, though single readings can be large or run the other way.
experimental endpoint: Potency

Examples with answers:
> print(dat)
                                   compound  experimental.endpoint    value.reported
1          CCOP(=S)(OCC)Oc1cc(-c2ccccc2)on1                Potency  68.6 µM (active)
2             COP(=S)(OC)Oc1c(Cl)cc(C)cc1Cl                Potency  30.6 µM (active)
3                            Cc1cccc(C#N)c1                Potency  68.2 µM (active)
4  CCCSP(=S)(OCC)Oc1ccc(Cl)cc1Cl (stereo not given)                Potency  38.6 µM (active)

Value of measured Potency for the entry CSc1ccc(C(=O)C(C)(C)N2CCOCC2)cc1 : 3.44 µM (active)

###

- target or system: Cytochrome P450 1A2 (Homo sapiens)
- measurement protocol: Cytochrome P450 Family 1 Subfamily A Member 2 (CYP1A2) small molecule antagonists: luciferase reporter qHTS assay (AID 1671199); note: nearly all actives have a fitted effect of over 50% in size
- assay context: P450-Glo CYP1A2 enzyme, luciferin luminescence, 1 h; series mostly up to 115 µM
Results filed as inconclusive are left out. Calls of active or inactive are those of the source. Calls come from the whole dose curve; as a rule, active = well fitted inhibition curve with a large enough effect in the repeat runs; inconclusive = weak or mixed curves; inactive = no such curve, though single readings can be large or run the other way.
Your reply should match one of these outcome classes. active, inactive

Please review the entries below; each comes with its answer.
> print(dat)
                                   compound     label
1                   COC(=O)COc1ccc(Cl)cc1Cl    active
2  COc1cc2c(cc1OC)[C@@]13CCN4CC5=CCO[C@H]6CC(=O)N2[C@H]1[C@H]6[C@H]5C[C@H]43  inactive
3  COc1cccc(C(=O)NN(C(=O)c2cc(C)cc(C)c2)C(C)(C)C)c1C  inactive
4          O=[N+]([O-])c1cc(Cl)c(Cl)c(Cl)c1    active
5          CCN(CC)c1nc(C)cc(OP(=S)(OC)OC)n1    active
6              CCOP(=S)(OCC)SCSc1ccc(Cl)cc1    active

Incoming: Per the records of this test, what outcome belongs to CCCCOC(=O)c1ccccc1N ?
Outgoing: active

Incoming: What was the test verdict on O=C1OC(c2ccc(O)c(S(=O)(=O)O)c2)(c2ccc(O)c(S(=O)(=O)O)c2)c2c(Br)c(Br)c(Br)c(Br)c21 ?
Outgoing: inactive

Incoming: For Nc1cc2c3c(c1)C(c1ccccc1)=N[C@@H](NC(=O)c1cccnc1)C(=O)N3CC2 , which call appears in the assay record?
Outgoing: inactive

###

- measurement protocol: qHTS assay to identify small molecule agonists of the retinoic acid receptor (RAR) signaling pathway (AID 1159553)
- assay context: C3RL4 RARE luciferase reporter, agonist, 6 h; series mostly up to 73.3 µM
Inconclusive results are not listed. The source made the active and inactive calls. Calls come from the whole dose curve; as a rule, active = well fitted activation curve with a large enough effect in the repeat runs; inconclusive = weak or mixed curves, or effect the other way; inactive = no such curve, though single readings can be large or run the other way.
// classify into 1 (yes) (active), 0 (no) (inactive)

Some solved entries appear below for comparison.
> print(dat)
    compound   label
1  ClC(Br)Br  0 (no)
2  ClC(Cl)Br  0 (no)

Incoming: What was the test verdict on Nc1c(Br)cc([N+](=O)[O-])cc1[N+](=O)[O-] ?
Outgoing: 0 (no)

Incoming: Recorded test call requested for CC1(C)CON(Cc2ccccc2Cl)C1=O
Outgoing: 1 (yes)

Incoming: # outcome recorded in this test, key = CC(Oc1ccc(Oc2ncc(C(F)(F)F)cc2Cl)cc1)C(=O)O (configuration not stated)
Outgoing: 0 (no)

Incoming: Hey, what did the test say about O=C(Nc1ccccc1)N(Cc1ccc(Cl)cc1)C1CCCC1 ?
Outgoing: 0 (no)

Incoming: What was the test verdict on CCOP(=S)(OCC)Oc1nc(Cl)n(C(C)C)n1 ?
Outgoing: 0 (no)

###

- measurement protocol: qHTS assay for identifying genotoxic compounds that show differential cytotoxicity against isogenic chicken DT40 cell lines with known DNA damage response pathways - Rev3 mutant cell line (AID 743014); note: nearly all actives have a fitted effect of over 55% in size
- assay context: chicken DT40 Rev3-/- viability, CellTiter-Glo, 40 h; series mostly up to 68.4 µM
- Description: National Center for Advancing Translational Sciences [NCATS] NIH Chemical Genomics Center [NCGC] U.S. Environmental Protection Agency [EPA] National Institutes of Environmental Health Sciences [NIEHS] National Toxicology Program [NTP] U.S. Food and Drug Administration [FDA] DNA repair pathways play a critical role in cellular homeostasis by repairing DNA damage induced by endogenous processes and xenobiotics. […]
Records with an inconclusive call do not appear. Activity calls are given as the source filed them. The call rests on the fitted dose curve; in most records, active means well fitted cell-killing curve with a large enough effect in the repeat runs; inconclusive means weak or mixed curves, or effect the other way; inactive means no such curve, though single readings can be large or run the other way.
The reply should name one outcome from yes (active), no (inactive)

These recorded examples may help you get a feel for the data.
> print(dat)
                                   compound  label
1                           CCCCN(CCCCO)N=O     no
2                               O=NN1CCCCC1     no
3                                 ClC(Br)Br     no
4  COc1cc(OC)nc(NC(=O)NS(=O)(=O)c2ncccc2C(=O)N(C)C)n1     no
5                         CC(C)[N+](=O)[O-]     no
6                                 ClC(Cl)Br     no
7  OC(c1ccc(F)cc1)(c1cncnc1)c1ccccc1Cl (stereo not drawn)    yes
8                 CCS(=O)(=O)CCSP(=O)(OC)OC    yes

Incoming: GET /call?item= COc1cc(OC)nc(Oc2cccc(Oc3nc(OC)cc(OC)n3)c2C(=O)O)n1 returns the recorded outcome of this test.
Outgoing: no

Incoming: Please state the recorded outcome for this compound: Cc1coc2c1CCC(C)C2 (stereo not drawn)
Outgoing: no

Incoming: Assay result, entry COC(=O)c1c(C(F)F)nc(C(F)(F)F)c(C2=NCCS2)c1CC(C)C — outcome?
Outgoing: yes

Incoming: Hey, what did the test say about CC1(C)CON(Cc2ccccc2Cl)C1=O ?
Outgoing: yes

Incoming: Would you mind telling me which call this test gave C#C[C@]1(O)C=C[C@H]2[C@@H]3CCC4=CC(=O)CC[C@@H]4[C@H]3CC[C@@]21CC ?
Outgoing: yes
